procedure text: Lanreotide trough serum levels (validated RIA with 125I-labelled lanreotide)
Format: in vivo, human (patients)
condition context: human, subcutaneous, week 92, 120 mg every 28 days, mean ± SD, read-out: Mean trough serum lanreotide concentration
measured endpoint: level at 15456 h

- CC(C)[C@@H]1NC(=O)[C@H](CCCCN)NC(=O)[C@@H](Cc2c[nH]c3ccccc23)NC(=O)[C@H](Cc2ccc(O)cc2)NC(=O)[C@@H](NC(=O)[C@H](N)Cc2ccc3ccccc3c2)CSSC[C@@H](C(=O)N[C@H](C(N)=O)[C@@H](C)O)NC1=O [lanreotide]: 5.3 ng/mL

----------
procedure text: Lanreotide trough serum levels (validated RIA with 125I-labelled lanreotide)
Type: in vivo, human (patients)
condition context: human, subcutaneous, week 20, after five injections of 120 mg every 28 days, mean ± SD, n = 27, read-out: Steady-state trough serum lanreotide level
measured endpoint: level at 3360 h (ng/mL)

- CC(C)[C@@H]1NC(=O)[C@H](CCCCN)NC(=O)[C@@H](Cc2c[nH]c3ccccc23)NC(=O)[C@H](Cc2ccc(O)cc2)NC(=O)[C@@H](NC(=O)[C@H](N)Cc2ccc3ccccc3c2)CSSC[C@@H](C(=O)N[C@H](C(N)=O)[C@@H](C)O)NC1=O [lanreotide]: 5.2

Origin of values: paper PMC3853091
